src = ChEMBL document CHEMBL2163256

# Test system: Mus musculus
# testSummary: Antiinflammatory activity against DSS-induced colitis BALB/c mouse model assessed as decrease in disease activity index at 30 mg/kg, po qd for 7 days relative to vehicle-treated control
# Format: functional, organism-based
# Parameters: dose 30 mg/kg
Calls of active or inactive are those of the source. The calls are words filed in the database; no cut-off is given here.
Please state which outcome applies, choosing from active, inactive

These recorded examples may help you get a feel for the data.
O=C(O)c1ccc(C[C@]2(C3=Cc4ccccc4C3)Cc3ccccc3[C@@H]2O)cc1; active
O=C(O)c1ccc(C[C@@]2(C3=Cc4ccccc4C3)Cc3ccccc3[C@H]2O)cc1; active
O=C(O)c1ccc(C[C@@]2(C3=Cc4ccccc4C3)Cc3ccccc3[C@@H]2O)cc1; inactive

Next compound, please.
Call for entry O=C(O)c1ccc(C[C@]2(C3=Cc4ccccc4C3)Cc3ccccc3[C@H]2O)cc1 : active
